Tested on: DU-145
procedure.text: NIH 60-tumor cell panel assay, DU-145
Type: cell-based
applied.conditions: read-out: growth inhibition IC50, DU-145
assay.readout: IC50

INSERT INTO measurements (compound, observed_result) VALUES
  ('O=C(NCc1cccc(O)c1)c1cc2cc(O)ccc2[nH]1 [Compound 49-meta]', '> 100 µM');

* * *

target.entity: Src (Homo sapiens, UniProt P12931)
Sequence (P12931 whole entry): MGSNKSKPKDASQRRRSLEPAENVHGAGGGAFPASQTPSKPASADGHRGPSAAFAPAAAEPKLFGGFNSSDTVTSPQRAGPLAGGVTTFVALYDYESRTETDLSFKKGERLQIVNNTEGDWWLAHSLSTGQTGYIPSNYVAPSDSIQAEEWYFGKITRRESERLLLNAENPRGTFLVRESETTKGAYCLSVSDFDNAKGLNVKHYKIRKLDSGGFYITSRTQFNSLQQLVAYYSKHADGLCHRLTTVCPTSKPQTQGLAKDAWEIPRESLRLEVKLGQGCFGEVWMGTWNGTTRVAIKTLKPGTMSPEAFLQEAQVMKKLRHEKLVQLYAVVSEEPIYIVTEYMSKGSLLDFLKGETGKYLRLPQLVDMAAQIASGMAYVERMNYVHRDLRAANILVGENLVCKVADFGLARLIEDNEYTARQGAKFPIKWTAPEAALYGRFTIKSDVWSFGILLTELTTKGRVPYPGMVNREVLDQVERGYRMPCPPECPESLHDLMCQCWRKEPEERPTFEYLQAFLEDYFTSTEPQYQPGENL
procedure.text: Isolated kinase assay and titration, Src
applied.conditions: titration data
pIC50: −log10 of the molar value.
assay.readout: pIC50

INSERT INTO measurements (molecule, observed_result) VALUES
  ('O=C(Cc1ccc(-c2ccc(OCCN3CCOCC3)cc2)cn1)NCc1ccccc1 [KX2-391]', 4.34);
